Some binders, each annotated with its measured koff.
System Tested: T1, biotinylated A93D-PNT domain (ETV6 residues 43-135, A93D, with Avitag) (human, UniProt P41212 43-135, A93D, biotin on the Avitag (~50 to 95% biotinylated))
T1 construct: ETV6, human, residues 43-135; made from the V112E construct by introducing A93D and E112V; also called biotinylated A93D-PNT domain ligand; A93D-PNT domain ligand; source: E. coli BL21 (λDE3) co-transformed with pET21a-BirA, purified (Ni-NTA, thrombin cleavage); not shown: His6, N-terminal, cleaved; Avitag, N-terminal, kept
T1 sequence (looked up): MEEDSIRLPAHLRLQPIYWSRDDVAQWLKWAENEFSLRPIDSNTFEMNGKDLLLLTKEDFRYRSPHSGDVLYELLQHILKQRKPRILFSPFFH
Assay Notes: SPR; biotinylated A93D-PNT domain ligand captured on streptavidin Sensor Chip SA, PNT domain analytes flowed; Biacore X100, 25 °C, HBS-EP+ (10 mM HEPES, 150 mM NaCl, 3 mM EDTA, 0.05% v/v Tween-20, pH 7.4); analyte 0.2-60 nM, re-run at 20-6000 nM if KD > 60 nM
Cond: both partners purified
The number alone won't do; follow it with the unit.

Binder	Quantity Measured	Reported
R105A-V112E-PNT domain (domain or fragment, human, UniProt P41212 40-125, looked up, ETV6 PNT domain, human; source: E. coli BL21 (λDE3), purified (Ni-NTA, thrombin cleavage); not shown: His6, N-terminal, cleaved) ALRMEEDSIRLPAHLRLQPIYWSRDDVAQWLKWAENEFSLRPIDSNTFEMNGKALLLLTKEDFRYASPHSGDELYELLQHILKQRK	koff	0.0054 s⁻¹
M89A-V112E-PNT domain (domain or fragment, human, UniProt P41212 40-125, looked up, ETV6 PNT domain, human; source: E. coli BL21 (λDE3), purified (Ni-NTA, thrombin cleavage); not shown: His6, N-terminal, cleaved) ALRMEEDSIRLPAHLRLQPIYWSRDDVAQWLKWAENEFSLRPIDSNTFEANGKALLLLTKEDFRYRSPHSGDELYELLQHILKQRK	koff	0.033 s⁻¹
I59A-V112E-PNT domain (domain or fragment, human, UniProt P41212 40-125, looked up, ETV6 PNT domain, human; source: E. coli BL21 (λDE3), purified (Ni-NTA, thrombin cleavage); not shown: His6, N-terminal, cleaved) ALRMEEDSIRLPAHLRLQPAYWSRDDVAQWLKWAENEFSLRPIDSNTFEMNGKALLLLTKEDFRYRSPHSGDELYELLQHILKQRK	koff	0.0025 s⁻¹
N85A-V112E-PNT domain (domain or fragment, human, UniProt P41212 40-125, looked up, ETV6 PNT domain, human; source: E. coli BL21 (λDE3), purified (Ni-NTA, thrombin cleavage); not shown: His6, N-terminal, cleaved) ALRMEEDSIRLPAHLRLQPIYWSRDDVAQWLKWAENEFSLRPIDSATFEMNGKALLLLTKEDFRYRSPHSGDELYELLQHILKQRK	koff	0.0034 s⁻¹

Next binder, please.
Value lookup for koff; key = D101A-V112E-PNT domain (domain or fragment, human, UniProt P41212 40-125, looked up, ETV6 PNT domain, human; source: E. coli BL21 (λDE3), purified (Ni-NTA, thrombin cleavage); not shown: His6, N-terminal, cleaved) ALRMEEDSIRLPAHLRLQPIYWSRDDVAQWLKWAENEFSLRPIDSNTFEMNGKALLLLTKEAFRYRSPHSGDELYELLQHILKQRK 0.0025 s⁻¹
